# systemName: IDH1 R132H (Homo sapiens, UniProt O75874, R132H)
# Construct: 6xHis
# Sequence (O75874 whole entry R132H): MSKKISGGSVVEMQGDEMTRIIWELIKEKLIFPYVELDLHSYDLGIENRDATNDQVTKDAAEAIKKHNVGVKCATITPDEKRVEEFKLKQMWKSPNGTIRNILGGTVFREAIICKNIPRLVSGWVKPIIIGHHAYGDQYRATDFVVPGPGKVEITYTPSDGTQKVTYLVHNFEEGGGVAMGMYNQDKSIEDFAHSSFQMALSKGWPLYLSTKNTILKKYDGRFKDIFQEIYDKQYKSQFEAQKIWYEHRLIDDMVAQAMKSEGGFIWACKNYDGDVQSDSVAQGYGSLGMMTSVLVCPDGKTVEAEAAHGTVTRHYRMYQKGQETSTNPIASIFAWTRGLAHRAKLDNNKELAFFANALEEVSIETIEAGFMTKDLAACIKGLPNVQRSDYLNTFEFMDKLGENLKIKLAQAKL
# experimentDescription: Biochemical assay for IDH inhibition (NADPH fluorescence), mutant IDH1 R132H
# condition: 50 nM IDH1-R132H, 1 hour pre-incubation, in triplet
Entries annotated with measured IC50
measurementType: IC50

compound=CCN1Cc2c(ccnc2N[C@@H](C)c2ncc(-c3ccc(OC)cc3)cn2)C1=O measurement="> 1000 nM"
compound="CCN1Cc2c(ccnc2N[C@@H](C)c2cc(F)c(-c3cc(C4(C(F)(F)F)CC=NN4)ccn3)cc2F)C1=O (stereo partly drawn)" measurement="< 100 nM"
compound=CCN1Cc2c(ccnc2N[C@@H](C)c2cc(F)c(-c3cc(C(C)(C)C)ncc3O)cc2F)C1=O measurement="< 100 nM"
compound=CCN1Cc2c(N[C@@H](C)c3ccc(Oc4ccc(C)cc4)c(F)c3)ncc(F)c2C1=O measurement="100 to 500 nM"
compound=CCN1Cc2c(ccnc2N[C@@H](C)c2cc(F)c(-c3cc(C(C)(C)F)c(F)c(C)n3)cc2F)C1=O measurement="< 100 nM"
compound=CCN1Cc2c(ccnc2N[C@@H](C)c2ccc(Oc3ccnc(C(F)(F)F)c3)c(F)c2)C1=O measurement="> 1000 nM"
compound=CCN1Cc2c(ccnc2N[C@@H](C)c2ccc(-c3ccnc(C(F)(F)F)c3)c(F)c2)C1=O measurement="> 1000 nM"
compound=CCN1Cc2c(ccnc2N[C@@H](C)c2cc(F)c(O[C@H]3C[C@@H](C)CC(C)(C)C3)cc2F)C1=O measurement="< 100 nM"
compound=C[C@H](Nc1nccc2c1CN(C(CF)CF)C2=O)c1ccc(-c2ccnc(C(C)(C)C)c2)c(F)c1 measurement="< 100 nM"
compound=CCN1Cc2c(ccnc2N[C@@H](C)c2cc(F)c(-c3cc(C(F)(F)F)cc(CF)n3)cc2F)C1=O measurement="< 100 nM"
compound=CCN1Cc2c(ccnc2N[C@@H](C)c2cc(F)c(Oc3ccc4c(ccn4C)c3)cc2F)C1=O measurement="< 100 nM"
compound=CCN1Cc2c(ccnc2N[C@@H](C)c2cc(F)c(-c3cc(C(C)(C)F)c(OCOC)cn3)cc2F)C1=O measurement="< 100 nM"
compound=CCN1Cc2c(N[C@@H](C)c3ccc(OC4CCCC4)c(F)c3)ncc(F)c2C1=O measurement="> 1000 nM"
compound=CCN1Cc2c(ccnc2N[C@@H](C)c2ccc(-c3ccc(F)c(C)c3)c(F)c2)C1=O measurement="100 to 500 nM"
compound=CCN1Cc2c(ccnc2N[C@@H](C)c2ccc(Cc3ccnc(C(F)(F)F)c3)c(F)c2)C1=O measurement="> 1000 nM"

----------
Entries annotated with measured IC50
# systemName: IDH1 R132C (Homo sapiens, UniProt O75874, R132C)
# Construct: 6xHis
# Sequence (O75874 whole entry R132C): as the sequence (O75874 whole entry R132H) above, with H132C counted along it
# experimentDescription: Biochemical assay for IDH inhibition (NADPH fluorescence), mutant IDH1 R132C
# condition: 25 nM IDH1-R132C, 1 hour pre-incubation, in triplet
measurementType: IC50

compound="CCN1Cc2c(ccnc2N[C@@H](C)c2cc(F)c(-c3ccnc(C(C)(C)C#N)c3)cc2F)C1=O [Compound 154]" measurement="500 to 1000 nM"
compound="CCN1Cc2c(ccnc2N[C@@H](C)c2cc(F)c(-c3cc(C(C)(C)F)cc(O)n3)cc2F)C1=O [Compound 156]" measurement="500 to 1000 nM"
compound="CCN1Cc2c(ccnc2N[C@@H](C)c2ccc(-c3ccc(C)cc3)c(F)c2)C1=O [Compound 73]" measurement="> 1000 nM"
compound="CCN1Cc2c(ccnc2N[C@@H](C)c2ccc(Oc3cccc4c3ccn4C)c(F)c2)C1=O [Compound 2]" measurement="100 to 500 nM"
compound="CCN1Cc2c(ccnc2N[C@@H](C)c2ccc(OC3CCCC3)c(F)c2)C1=O [Compound 15]" measurement="500 to 1000 nM"
compound="CCN1Cc2c(ccnc2N[C@@H](C)c2cc(F)c(Oc3ccc4c(ccn4C)c3)cc2F)C1=O [Compound 21]" measurement="100 to 500 nM"
compound="CCN1Cc2c(N[C@@H](C)c3ccc(Oc4ccc(C)cc4)c(F)c3)ncnc2C1=O [Compound 65]" measurement="> 1000 nM"
compound="CCN1Cc2c(ccnc2N[C@@H](C)c2cc(F)c(-c3cc(C(F)(F)F)cc(F)n3)cc2F)C1=O [Compound 155]" measurement="100 to 500 nM"
compound="Cc1ccc(Oc2ccc([C@H](C)Nc3nccc4c3CN(CC(F)F)C4=O)cc2F)cc1 [Compound 17]" measurement="100 to 500 nM"
compound="CCN1Cc2c(ccnc2N[C@@H](C)c2cc(F)c(-c3cc(C(C)(C)F)c(C#N)cn3)cc2F)C1=O [Compound 163]" measurement="100 to 500 nM"
compound="CCN1Cc2c(ccnc2N[C@@H](C)c2cc(F)c(-c3ccnc(C4CC(F)(F)C4)c3)cc2F)C1=O [Compound 97]" measurement="500 to 1000 nM"
compound="CCN1Cc2c(ccnc2N[C@@H](C)c2cc(F)c(-c3cc(C(C)(C)F)ncc3CF)cc2F)C1=O [Compound 139]" measurement="100 to 500 nM"
compound="CCN1Cc2c(N[C@@H](C)c3ccc(OC4CCCC4)c(F)c3)ncc(F)c2C1=O [Compound 19]" measurement="> 1000 nM"
compound="C/C=C(\\c1ccnc(-c2cc(F)c([C@H](C)Nc3nccc4c3CN(CC)C4=O)cc2F)c1)C(F)(F)F [Compound 125]" measurement="< 100 nM"
compound="CCN1Cc2c(ccnc2N[C@@H](C)c2ccc(OC3Cc4ccccc4C3)c(F)c2)C1=O [Compound 5]" measurement="500 to 1000 nM"
compound="CCN1Cc2c(ccnc2N[C@@H](C)c2ccc(-c3ccnc(C(C)(C)C(N)=O)c3)c(F)c2)C1=O [Compound 69]" measurement="> 1000 nM"

----------
# systemName: IDH (endogenous IDH1 R132C) in HT1080 cell (Homo sapiens, UniProt O75874, R132C)
# Construct: which harbor endogenous heterozygous IDH1 R132C and R132H mutation respectively and accumulate D-2-HG
# Sequence (O75874 2-414 R132C): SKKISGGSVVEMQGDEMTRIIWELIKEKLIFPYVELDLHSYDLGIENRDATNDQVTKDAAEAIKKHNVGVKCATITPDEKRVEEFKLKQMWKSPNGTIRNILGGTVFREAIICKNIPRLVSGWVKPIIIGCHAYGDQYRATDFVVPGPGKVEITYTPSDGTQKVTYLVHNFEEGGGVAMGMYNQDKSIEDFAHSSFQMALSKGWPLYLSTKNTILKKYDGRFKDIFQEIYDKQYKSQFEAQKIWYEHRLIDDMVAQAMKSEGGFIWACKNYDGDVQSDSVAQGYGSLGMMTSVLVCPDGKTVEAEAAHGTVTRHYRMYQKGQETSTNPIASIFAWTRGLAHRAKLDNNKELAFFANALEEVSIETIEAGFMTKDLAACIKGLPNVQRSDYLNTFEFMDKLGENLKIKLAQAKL
# experimentDescription: Cell-based assay for IDH inhibition (decrease of D-2-HG) in HT1080 cells
# condition: human fibrosarcoma cell line HT1080, 16 hours treatment, D-2-HG by LC-MS, in triplet
Entries annotated with measured IC50
measurementType: IC50

molecule="CCN1Cc2c(ccnc2N[C@@H](C)c2cc(F)c(-c3cc(C(C)(C)F)cc(OC)n3)cc2F)C1=O [Compound 120]" measurementtype=IC50 measurement="< 100 nM"
molecule="CCN1Cc2c(ccnc2N[C@@H](C)c2cc(F)c(-c3cc(C(C)(C)F)cc(CF)n3)cc2F)C1=O [Compound 118]" measurementtype=IC50 measurement="< 100 nM"
molecule="CCN1Cc2c(ccnc2N[C@@H](C)c2cc(F)c(-c3cc(C(C)(C)F)c(COC)cn3)cc2F)C1=O [Compound 147]" measurementtype=IC50 measurement="< 100 nM"
molecule="CCN1Cc2c(ccnc2N[C@@H](C)c2ccc(N(C)c3ccccc3)c(F)c2)C1=O [Compound 31]" measurementtype=IC50 measurement="> 1000 nM"
molecule="CCN1Cc2c(ccnc2N[C@@H](C)c2cc(F)c(-c3cc(C(C)(C)F)cc(F)n3)cc2F)C1=O [Compound 119]" measurementtype=IC50 measurement="< 100 nM"
molecule="CCN1Cc2c(ccnc2N[C@@H](C)c2cc(F)c(-c3cc(C4(F)CC4)cc(C)n3)cc2F)C1=O [Compound 131]" measurementtype=IC50 measurement="< 100 nM"
molecule="CCN1Cc2c(ccnc2N[C@@H](C)c2cc(F)c(-c3cc(OC(C)(C)C)cc(C)n3)cc2F)C1=O [Compound 129]" measurementtype=IC50 measurement="< 100 nM"
molecule="CCN1Cc2c(ccnc2N[C@@H](C)c2ccc(C3=CCN(C(C)(C)C)CC3)c(F)c2)C1=O [Compound 35]" measurementtype=IC50 measurement="> 1000 nM"
molecule="CCN1Cc2c(ccnc2N[C@@H](C)c2cc(F)c(-c3cc(C(F)(F)F)ccn3)cc2F)C1=O [Compound 115]" measurementtype=IC50 measurement="100 to 500 nM"
molecule="CCN1Cc2c(ccnc2N[C@@H](C)c2ccc(-c3ccc(F)cc3)c(F)c2)C1=O [Compound 74]" measurementtype=IC50 measurement="> 1000 nM"
molecule="CCN1Cc2c(ccnc2N[C@@H](C)c2cc(F)c(-c3cc(C(C)(C)F)cc(C)n3)cc2F)C1=O [Compound 113]" measurementtype=IC50 measurement="< 100 nM"
molecule="CCN1Cc2c(ccnc2N[C@@H](C)c2cc(F)c(OC3CC(C)CC(C)(C)C3)cc2F)C1=O (stereo partly shown) [Compound 22]" measurementtype=IC50 measurement="< 100 nM"
molecule="CCN1Cc2c(ccnc2N[C@@H](C)c2ncc(-c3ccccc3)cn2)C1=O [Compound 47]" measurementtype=IC50 measurement="> 1000 nM"
